Test Target: Dbp2 (MBP-TEV-Dbp2 construct) (Saccharomyces cerevisiae, UniProt P24783 1-546)
Sequence (P24783 whole entry): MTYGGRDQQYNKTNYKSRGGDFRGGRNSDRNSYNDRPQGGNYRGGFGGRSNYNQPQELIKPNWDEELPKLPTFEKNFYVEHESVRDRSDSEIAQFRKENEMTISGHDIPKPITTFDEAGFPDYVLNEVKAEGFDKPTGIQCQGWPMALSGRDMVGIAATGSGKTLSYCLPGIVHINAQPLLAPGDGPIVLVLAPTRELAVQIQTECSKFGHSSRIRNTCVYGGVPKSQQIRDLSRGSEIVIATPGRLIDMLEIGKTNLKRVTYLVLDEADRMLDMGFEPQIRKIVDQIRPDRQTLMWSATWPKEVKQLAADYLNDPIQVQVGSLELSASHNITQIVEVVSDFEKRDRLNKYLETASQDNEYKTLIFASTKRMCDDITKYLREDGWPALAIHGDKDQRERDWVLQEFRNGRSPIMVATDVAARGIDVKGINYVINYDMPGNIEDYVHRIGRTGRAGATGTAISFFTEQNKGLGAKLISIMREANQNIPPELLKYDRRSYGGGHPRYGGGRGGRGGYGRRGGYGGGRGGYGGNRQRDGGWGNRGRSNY
Procedure Summary: fluorescence anisotropy
Reported Property: Kd (µM)
Answer in µM, number only, no unit symbol.

(Q) Quick one: Kd for AGCACCGUAAAGACGC (ssRNA) [16 nt ssRNA, 6-FAM] ?
(A) 0.038
